This collection of values is drawn from ChEMBL document CHEMBL5303304.

# System: U2OS
# Experiment Notes: Incucyte cell viability with U2OS; note: unitless GR value; below 1 slowed growth and below 0 cell loss
# Type: toxicity, cell-based
# Settings: human, 0 h, 10 µM, compound concentration 10 uM, replicate number 1
Binary classification by Growth Rate, with 0.07 as an inclusive lower bound for criterion met; all other cases are criterion not met.

Solved entries (count: 4):
• CCN1C(=O)C(c2cccc(C(=O)O)c2)C(=O)N(c2ccccc2)c2cc(C(F)(F)F)ccc21 (stereo not drawn) = criterion met
• O=C1CCCc2[nH]c(-c3ccnc(NCC4CC4)c3)c(Nc3ccccc3)c21 = criterion met
• Cc1cc(Nc2ncc(Cl)c(Nc3ccccc3S(=O)(=O)C(C)C)n2)c(OC(C)C)cc1C1CCNCC1 [CERITINIB] = criterion met
• CC(C)(c1ccc(OCc2cccc(COc3ccc(C(=N)N)cc3)c2)cc1)c1ccc(O[C@@H]2O[C@H](C(=O)O)[C@@H](O)[C@H](O)[C@H]2O)cc1.O=C(O)C(F)(F)F = criterion met

Evaluate `O=C(CCCCCCc1ccccc1)c1ncc(-c2ccccn2)o1` : Growth Rate at minimum 0.07?
criterion met

Hi, just wondering whether `Cn1c(Nc2c(Cl)cccc2Cl)nc2ccc3nc[nH]c(=O)c3c21` shows Growth Rate of 0.07 or higher.
criterion not met

Form field: Growth Rate at least 0.07? Entry: `CCc1ncnc(N2CCN(C(C)=O)CC2)c1C#Cc1ccc(N)nc1.Cl.Cl`
criterion not met

###

// reported Growth Rate for each item listed
# Test system: Fibroblast
# Experiment Notes: Incucyte cell viability with human fibroblast; note: unitless GR value; below 1 slowed growth and below 0 cell loss
# Format: toxicity, cell-based
# Settings: 0 h, 10 µM, compound concentration 10 uM, replicate number 2
Returns: the value as a bare number; no unit string appended.

- COc1ccc2c(O[C@@H]3C[C@H]4C(=O)N[C@]5(C(=O)O)CC5/C=C\CCCCC[C@H](NC(=O)OC5CCCC5)C(=O)N4C3)cc(-c3csc(NC(=O)C(C)C)n3)nc2c1C (some centres not stated): 0.45
- CN1CCN(c2ccc(/C=C(\C#N)c3ccccc3Br)cc2)CC1.Cl.Cl: 0.65
- CC(=O)N1CCN([C@H]2CCC[C@@H](NC(=O)c3cc4c(F)ccc(C)c4[nH]3)C2)CC1.O=C(O)C(F)(F)F: -0.08
- C=CC(=O)Nc1ccc(C(=O)Nc2n[nH]c3c2CN(C(=O)N[C@H](CN(C)C)c2ccccc2)C3(C)C)cc1: -0.72
- Cc1ncsc1-c1ccc(CNC(=O)[C@@H]2C[C@@H](O)CN2C(=O)[C@@H](NC(=O)C2(F)CC2)C(C)(C)C)c(OCCOc2ccc(CN3CCN(c4cc(-c5ccccc5O)nnc4N)CC3)cc2)c1: -1
- CC1=C(C(=O)OCCO)[C@@H](c2ccc(C#N)cc2)NC(=O)N1c1cccc(C(F)(F)F)c1: -0.51
- Nc1ccc(-c2cnc(N)c(-c3ccc(Cl)cc3)c2)cn1: -0.5
- CNC(=O)c1cccc(-c2ccc3c(N4CCOC[C@@H]4C)nc(N4CCOC[C@@H]4C)nc3n2)c1: -0.6

Proceed to the following item.
The compound listed as `COc1cc2ncnc(Nc3cccc(O)c3)c2cc1OC` has a reported Growth Rate of 0.07

###

# Tested on: HEK-293T
# Experiment Notes: Incucyte cell viability with HEK293T; note: unitless GR value; below 1 slowed growth and below 0 cell loss
# Type: toxicity, cell-based
# Settings: human, 18 h, 10 µM, compound concentration 10 uM, replicate number 2
Binary label based on Growth Rate with cut-off 0.8: below gives satisfied, not below gives not satisfied.

- CC(C)Oc1ccc(Cc2ccc(NC3=NCCN3)cc2)cc1: satisfied

Kindly review the next compound as well.
Regarding CCOC(=O)C1=C[C@]2(CC)CCCN3CCc4c(n1c1ccccc41)[C@@H]32 [VINPOCETINE] , kindly confirm whether its Growth Rate is beneath 0.8.
not satisfied

###

# System: HEK-293T
# Experiment Notes: Incucyte cell viability with HEK293T; note: unitless GR value; below 1 slowed growth and below 0 cell loss
# Assay type: toxicity, cell-based
# Settings: human, 24 h, 10 µM, compound concentration 10 uM, replicate number 1
Catalogue of Growth Rate readings, one per entry.
Kindly provide the number alone.

- COc1cc(F)ccc1-c1cc(Nc2cc(CS(C)(=N)=O)ccn2)ncc1F (centres undefined) [ENITOCICLIB]: -0.17
- CN(C)C(=O)c1cc2cnc(Nc3ccc(N4CCN(CCCCNC(=O)COc5cccc6c5C(=O)N(C5CCC(=O)NC5=O)C6=O)CC4)cn3)nc2n1C1CCCC1 (centres undefined): 1
- CC(C)C[C@H](NC(=O)[C@@H](O)[C@H](N)Cc1ccccc1)C(=O)O [UBENIMEX]: 0.59

Now for another entry.
Growth Rate reported for this compound `c1ccc(C(OC2CCN(CCCc3nnn[nH]3)CC2)c2ccccc2)cc1` : 0.65

###

# Test system: Fibroblast
# Experiment Notes: Incucyte cell viability with human fibroblast; note: unitless GR value; below 1 slowed growth and below 0 cell loss
# Type: toxicity, cell-based
# Settings: 24 h, 10 µM, compound concentration 10 uM, replicate number 1
Decide using Growth Rate: a value greater than or equal to 0.5 is class 1, a smaller one is class 0.

Would you say `COc1ccc(-c2cc3c(C)nc(N)nc3n([C@H]3CC[C@H](OCCO)CC3)c2=O)cn1` shows Growth Rate at minimum 0.5?
class 0

Kindly determine if Growth Rate recorded for `O=C(NCCS(=O)(=O)c1ccc(C(F)(F)F)cn1)c1ccc(Cl)cc1` is above or exactly 0.5.
class 1

API: above_or_equal(metric=Growth Rate, cutoff=0.5) for item `Cc1c(CN2CCC3(CC2)CN(c2ncnc4sc(CC(F)(F)F)cc24)C3)ccc2c1cc(C#N)n2CC(N)=O`
class 0

Could you tell me if the measured Growth Rate of `CC(C)(C)S(=O)(=O)c1ccc2nccc(Nc3n[nH]c4ccc(F)cc34)c2c1` reaches 0.5 or more?
class 0

In plain terms: is recorded Growth Rate at least 0.5 for `Cc1nc2c([nH]1)c(=O)n(C)c(=O)n2Cc1ccco1` ?
class 1

###

# Test system: U2OS
# Experiment Notes: Incucyte cell viability with U2OS; note: unitless GR value; below 1 slowed growth and below 0 cell loss
# Format: toxicity, cell-based
# Settings: human, 24 h, 10 µM, compound concentration 10 uM, replicate number 1
// assign MET if Growth Rate falls strictly below 0.9, else NOT MET (ties count as NOT MET)

The following compounds have reported results that may help.
- COc1ccc(NC(=O)[C@@H]2C[C@H](C)CC[C@H]2C(C)C)cc1: NOT MET
- Cc1ncsc1-c1ccc(CNC(=O)[C@@H]2C[C@H](O)CN2C(=O)[C@@H](NC(=O)C2(F)CC2)C(C)(C)C)c(OCCOc2ccc(CN3CCN(c4cc(-c5ccccc5O)nnc4N)CC3)cc2)c1: NOT MET
- O=C(Nc1ccnc(NC(=O)C2CC2)c1)c1c(Cl)cccc1Cl: NOT MET

Record `CN1CCc2cc(Nc3ncc(C(F)(F)F)c(NCc4cc[nH]n4)n3)ccc2C1` : is its Growth Rate strictly below 0.9?
MET

Does the reported Growth Rate of `CCOC(=O)CS(=O)(=O)c1ccc([C@@H](CO)NC(=O)c2cc3c(Cl)c(Cl)c(C)cc3n2C)cc1` stay below 0.9?
MET

A record lists `CCCC(=O)C1CCN(c2ncnc3c2CN(C(=O)c2ccc(-c4ccccc4)cc2)CC3)CC1` . Is its Growth Rate below 0.9?
MET

Record `CN1C(=O)c2ccccc2N(C)c2nc(Nc3cnn(C4CCNCC4)c3)ncc21` : is its Growth Rate strictly below 0.9?
MET

Please determine if `Cl.Clc1ccc(OC[C@H]2CCN2)cn1` is below 0.9 in terms of Growth Rate.
MET

###

# System: Fibroblast
# Experiment Notes: Incucyte cell viability with human fibroblast; note: unitless GR value; below 1 slowed growth and below 0 cell loss
# Format: toxicity, cell-based
# Settings: 12 h, 10 µM, compound concentration 10 uM, replicate number 1
// label = y if Growth Rate is not less than 0.7, otherwise n

* COc1cc(C(=O)NC2CCN(C)CC2)ccc1Nc1ncc(C(F)(F)F)c(NCc2ccc(C)cc2N(C)S(C)(=O)=O)n1.O=CO.O=CO | n

Tell me whether Growth Rate is at least 0.7 here: `CN(C(=O)c1cnn2cccnc12)c1cc2c(cc1N1CCOCC1)C(=O)N(C[C@@H](F)C(C)(C)O)C2`
y

Kindly determine if Growth Rate recorded for `Cc1cccc(F)c1C(=O)Nc1cnc(-c2cc3c(cc2Cl)OC(F)(F)O3)cn1` is above or exactly 0.7.
n

Reported Growth Rate reaches at least 0.7 for `O=C(Cc1ccccc1)Nc1nnc(N2CC[C@@H]3[C@H]2CN3c2cccnn2)s1` ?
y

Entry `CCNC1=N[C@@H]2[C@@H](O)[C@H](O)[C@@H](CO)O[C@@H]2S1` : is its Growth Rate no less than 0.7?
y

Has `O=C(CCSCc1ccco1)NNC(=O)N1Cc2ccccc2Oc2ccc(Cl)cc21` a recorded Growth Rate greater than or equal to 0.7?
y

Please indicate if the recorded Growth Rate for `COC[C@@H](C)N[C@H]1CC[C@H](Nc2cc(-c3cccc(NCC4(C#N)CCOCC4)n3)c(Cl)cn2)CC1` meets or exceeds 0.7.
n

Please check the record CC(CNS(=O)(=O)C(C)C)c1ccc(-c2ccc(C#N)cc2)cc1 (stereo unspecified) and state if its Growth Rate is at or above 0.7.
n
